target: HLA-B*15:01
run_description: IEDB peptide-MHC binding, purified MHC/competitive/fluorescence; filed as Kd, often an IC50 or EC50 that approximates it; bounds were set here for any values at or beyond the usual limits of such assays
test_parameters: source organism: Escherichia coli 536
quantity_kind: Kd (nM)
Write it as a number; the unit nM goes unstated.

Problem: Fill in: Kd on HLA-B*15:01, entry AVASLLDEY
Result: 96.2

====

Measured pKd of individual entries
target: HLA-B*15:01
run_description: IEDB peptide-MHC binding, purified MHC/competitive/radioactivity; filed as Kd, often an IC50 or EC50 that approximates it; bounds were set here for any values at or beyond the usual limits of such assays
test_parameters: source organism: Dengue virus 4 Philippines/H241/1956
Hey, just a heads up that pKd is the negative log base 10 of the concentration in molar.

Past entries and their recorded results:
biopolymer_sequence: GQTGIQRTVF
target: HLA-B*15:01
pKd: 8.23
--
biopolymer_sequence: EMCEDTVTY
target: HLA-B*15:01
pKd: 7.55

We now examine a further sequence.
Problem: Report the value of pKd obtained on HLA-B*15:01 for ILGAQALPVY .
Result: 8.31

====

target: HLA-A*02:12
run_description: IEDB peptide-MHC binding, purified MHC/direct/fluorescence; filed as Kd, often an IC50 or EC50 that approximates it; bounds were set here for any values at or beyond the usual limits of such assays
test_parameters: source organism: Lyssavirus rabies
quantity_kind: Kd (nM)
The figure you give is taken to be in nM; do not add the unit.

Problem: Complete the entry with Kd for YLDNVGVHI
Result: 7

====

target: HLA-A*02:03
run_description: IEDB peptide-MHC binding, purified MHC/competitive/radioactivity; filed as Kd, often an IC50 or EC50 that approximates it; bounds were set here for any values at or beyond the usual limits of such assays
test_parameters: source organism: Dengue virus 1 Singapore/S275/1990
quantity_kind: pKd
Worth noting: pKd values are minus log10 of concentrations stated in mol/L.

Problem: # return recorded pKd for input PLNEGIMAV
Result: 6.93

====

target: HLA-A*68:02
run_description: IEDB peptide-MHC binding, purified MHC/direct/fluorescence; filed as Kd, often an IC50 or EC50 that approximates it; bounds were set here for any values at or beyond the usual limits of such assays
test_parameters: source organism: Bacillus anthracis str. A0488
quantity_kind: Kd

Problem: Please supply the value of reported Kd for the item WDAYIPHYV
Result: ≤ 1 nM

====

target: HLA-B*57:01
run_description: IEDB peptide-MHC binding, purified MHC/direct/fluorescence; filed as Kd, often an IC50 or EC50 that approximates it; bounds were set here for any values at or beyond the usual limits of such assays
test_parameters: source organism: Influenza A virus (A/swine/Italy/809/1989(H3N2))
quantity_kind: Kd

Problem: Supply recorded Kd for EEIRRIWRQ here.
Result: ≥ 20 µM

====

target: HLA-A*69:01
run_description: IEDB peptide-MHC binding, purified MHC/direct/fluorescence; filed as Kd, often an IC50 or EC50 that approximates it; bounds were set here for any values at or beyond the usual limits of such assays
test_parameters: source organism: Yellow fever virus
quantity_kind: Kd

Problem: Give me measured Kd, please, for this sequence: TKDTNDNNL
Result: ≥ 20 µM

====

target: HLA-B*15:17
run_description: IEDB peptide-MHC binding, purified MHC/direct/fluorescence; filed as Kd, often an IC50 or EC50 that approximates it; bounds were set here for any values at or beyond the usual limits of such assays
test_parameters: source organism: Cryptosporidium parvum
quantity_kind: pKd
Kindly note that pKd refers to -log10 of the concentration in mol/L and answer with the value alone.

Problem: For the sequence KACPPGFVF , give its reported pKd.
Result: 6.84

====

target: HLA-B*45:01
run_description: IEDB peptide-MHC binding, purified MHC/competitive/radioactivity; filed as Kd, often an IC50 or EC50 that approximates it; bounds were set here for any values at or beyond the usual limits of such assays
test_parameters: source organism: SARS coronavirus Tor2
Rule for this label: Criterion met means Kd is less than 600 nM; Criterion not met means Kd is at least 600 nM.

Problem: Field: below-cutoff. Rule: recorded Kd strictly less than 600 nM. Subject: SEAPNAKEEI
Result: Criterion met

====

target: HLA-A*24:03
run_description: IEDB peptide-MHC binding, purified MHC/competitive/fluorescence; filed as Kd, often an IC50 or EC50 that approximates it; bounds were set here for any values at or beyond the usual limits of such assays
test_parameters: source organism: Vibrio cholerae 2740-80
quantity_kind: Kd

Problem: Please list Kd recorded for the sequence IFIRTIYYH
Result: ≥ 20 µM

====

target: HLA-B*73:01
run_description: IEDB peptide-MHC binding, purified MHC/competitive/fluorescence; filed as Kd, often an IC50 or EC50 that approximates it; bounds were set here for any values at or beyond the usual limits of such assays
test_parameters: source organism: Cryptosporidium parvum Iowa II
pKd: −log10 of the molar value.
quantity_kind: pKd

Problem: State pKd on HLA-B*73:01. Entry: SDFFDRLQV
Result: ≤ 4.70

====

target: HLA-A*31:01
run_description: IEDB peptide-MHC binding, purified MHC/competitive/radioactivity; filed as Kd, often an IC50 or EC50 that approximates it; bounds were set here for any values at or beyond the usual limits of such assays
test_parameters: source organism: Mammarenavirus brazilense
quantity_kind: Kd (µM)
Reply numerically in µM, unit not repeated.

biopolymer_sequence: VTLDFTKFH
target: HLA-A*31:01
quantity_kind: Kd
reported: 13.1

Switching to the query record.
Problem: Return value of Kd for input IMAYVNQAH , no commentary.
Result: 3.41

====

target: HLA-B*51:01
run_description: IEDB peptide-MHC binding, purified MHC/competitive/fluorescence; filed as Kd, often an IC50 or EC50 that approximates it; bounds were set here for any values at or beyond the usual limits of such assays
test_parameters: source organism: Orthohantavirus sinnombreense
quantity_kind: Kd

Problem: Supply recorded Kd for GSFRKICGF here.
Result: ≥ 20 µM

====

target: HLA-B*08:01
run_description: IEDB peptide-MHC binding, purified MHC/competitive/fluorescence; bounds were set here for any values at or beyond the usual limits of such assays
test_parameters: source organism: Vaccinia virus Copenhagen
quantity_kind: IC50

Problem: Identify the reported IC50 for the following entry. GYFLKIKVT
Result: ≥ 231 µM

====

target: HLA-A*29:02
run_description: IEDB peptide-MHC binding, purified MHC/competitive/radioactivity; filed as Kd, often an IC50 or EC50 that approximates it; bounds were set here for any values at or beyond the usual limits of such assays
test_parameters: source organism: Mammarenavirus lassaense
quantity_kind: pKd
By convention, pKd is the negative base-10 log of a molar concentration.

Problem: Specify measured pKd for AGFTAGLSY .
Result: 7.22

====

target: HLA-A*02:01
run_description: IEDB peptide-MHC binding, purified MHC/direct/fluorescence; filed as Kd, often an IC50 or EC50 that approximates it; bounds were set here for any values at or beyond the usual limits of such assays
test_parameters: source organism: Entamoeba histolytica HM-1:IMSS
quantity_kind: pKd
Value format note: pKd is -log10 of concentration (mol/L); just state the number.

Problem: Provide measured pKd on HLA-A*02:01 for GMLECGFPT please.
Result: 8.32

====

target: HLA-A*31:01
run_description: IEDB peptide-MHC binding, purified MHC/direct/fluorescence; filed as Kd, often an IC50 or EC50 that approximates it; bounds were set here for any values at or beyond the usual limits of such assays
test_parameters: source organism: Orthohantavirus hantanense
quantity_kind: pKd
Remember the convention: pKd equals -log10 of concentration in molar.

Problem: State its pKd: RLKPVGSAY
Result: 6.40

====

target: HLA-A*03:01
run_description: IEDB peptide-MHC binding, purified MHC/competitive/fluorescence; filed as Kd, often an IC50 or EC50 that approximates it; bounds were set here for any values at or beyond the usual limits of such assays
test_parameters: source organism: Salmonella enterica subsp. enterica serovar Typhi
quantity_kind: Kd (nM)
# output: bare number, implied unit nM

Problem: Look up and report Kd, with HLA-A*03:01 as system, for WVAGVQLLY
Result: 486

====

target: HLA-B*57:01
run_description: IEDB peptide-MHC binding, purified MHC/competitive/fluorescence; filed as Kd, often an IC50 or EC50 that approximates it; bounds were set here for any values at or beyond the usual limits of such assays
test_parameters: source organism: Rickettsia felis URRWXCal2
pKd: −log10 of the molar value.
quantity_kind: pKd

Problem: With HLA-B*57:01 as the test system, provide measured pKd for this sequence: QYLFSLTYV
Result: ≤ 4.70

====

target: HLA-C*03:03
run_description: IEDB peptide-MHC binding, purified MHC/direct/fluorescence; filed as Kd, often an IC50 or EC50 that approximates it; bounds were set here for any values at or beyond the usual limits of such assays
test_parameters: source organism: Francisella tularensis subsp. tularensis FSC198
quantity_kind: Kd

Problem: Give me measured Kd, please, for this sequence: FLYDISISL
Result: ≤ 1 nM
